experiment: Oral bioavailability in Sprague-Dawley rat at 2 mg/kg; format: ADME, organism-based; details: in vivo
READOUT: bioavailability (%)
// note: answer is a bare numeric in %

Report bioavailability for `COCCNC(=O)c1cccc2cc(Oc3ccnc4cc(OC)c(C(N)=O)cc34)ccc12` please.
12

Next molecule up: `COc1cc2nccc(Oc3ccc4c(C(N)=O)cccc4c3)c2cc1OC`
96

Next molecule up: `COc1cc2nccc(Oc3ccc4c(C(=O)NC5CC5)cccc4c3)c2cc1C(N)=O`
39

Next molecule up: `COCCNC(=O)c1cccc2cc(Oc3ccnc4cc(OC)c(OC)cc34)ccc12`
99

* * *

experiment: Tmax in Sprague-Dawley rat at 10 mg/kg, po; type: ADME, organism-based; design: dose 10 mg/kg, route oral; settings: in vivo
READOUT: Tmax
Could you kindly put the unit after your number?

Report Tmax for `COc1cc2nccc(Oc3ccc4c(C(=O)NC5CC5)cccc4c3)c2cc1OC` please.
2.5 h

All figures here come from ChEMBL document CHEMBL1144684.
